Tested on: woolly cupgrass (Eriochloa villosa)
Experiment: Test C postemergence
Assay type: in vivo
Conditions: Rate 62 g/ha, scale 0 to 100
Reported Plant response rating, Cupgrass, Woolly values are given for each entry in this list.
Response field accepts a number only; no unit should be typed.

// below: answered compounds
Query :: # lookup: Plant response rating, Cupgrass, Woolly of CCCOc1cc(N2CCC(n3ccc(C(C)(C)C)n3)C2=O)ccc1C (centres unmarked)
Result :: 0

Query :: What do you have for Cc1ccc(N2CCC(n3ccc(C(C)(C)C)n3)C2=O)cc1OCCCl (centres unmarked) ?
Result :: 0

Query :: Same for CCC(C)c1ccn(C2CCN(c3ccc(Cl)c(OC)c3)C2=O)n1 (centres unmarked)
Result :: 0

Query :: Could you do the same for CCOc1cc(N2CCC(n3ccc(C(C)(C)C)n3)C2=O)ccc1C (centres unmarked) , please?
Result :: 10

Okay, next one:
Query :: Endpoint output: Plant response rating, Cupgrass, Woolly of COc1cc(N2CCC(n3ccc(C(C)C)n3)C2=O)ccc1C (centres unmarked) . Value?
Result :: 30
